B1: INTS3 (parent)
chain: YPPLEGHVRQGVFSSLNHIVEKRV

- Variants of: B1
- assay.remarks: protein stability index of a GFP-peptide fusion (GPS, HEK-293T) (PSI 1-6); higher = more stable;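 also: lentivirally expressed fusions sorted by FACS into six bins by GFP to DsRed ratio, PSI derived from sequencing read proportions per bin multiplied by bin number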
- condition: c terminus: a fixed tail appended
Outcome: Y for protein stability index of at least 3; N for anything lower.

Examples from the recorded data:
> print(dat)
                     sequence.data  category.label
1   YPPLEGNVRQGVFSSLNHIVEKRV [H7N]               Y
2   YPHLEGHVRQGVFSSLNHIVEKRV [P3H]               N
3  YPPLEGHVRQGVFSILNHIVEKRV [S15I]               N
4  YPPLEGHVRQGVFSSLNHIVEKRY [V24Y]               N
5  YPPLEGHVRCGVFSSLNHIVEKRV [Q10C]               N
6  YPPLEGHVRQGVFSSLNHIWEKRV [V20W]               N
7  YPPLEGHVRQGVFSSLNHIAEKRV [V20A]               N
8   YPDLEGHVRQGVFSSLNHIVEKRV [P3D]               Y

Has YPGLEGHVRQGVFSSLNHIVEKRV [P3G] a recorded protein stability index greater than or equal to 3? N

Identify whether the reported protein stability index of the following variant is 3 or greater: YVPLEGHVRQGVFSSLNHIVEKRV [P2V] N

Where do the numbers come from? From the supplement of paper PMC10567573.
